experimental.system: pre-pro-human insulin
The entries below are paired with their reported Selectivity.

protein	Selectivity
trypsin variant SEQ ID NO: 45 (protein) IVGGYTCAANSIPYQVSLNSGSHRCGGSLINSQWVVSAAHCYKSRIQVRLGEHNIDVLEGNEQFINAAKIITHPNFNGNTLDNDIMLIKLSSPATLNSRVATVSLPRSCAAAGTECLISGWGNTKSSGSSYPSLLQCLKAPVLSDSSCKSSYPGQITGNMICVGFLEGGKDCCQGDSGGPVVCNGQLQGIVSSGYGCAQKNKPGVYTKVCNYVNWIQQTIAAN	>65%

IN: Write down Selectivity measured for item trypsin variant SEQ ID NO: 32 (protein) IVGGYTCAANSIPYQVSLNSGSHRCGGSLINSQWVVSAAHCYKSRIQVRLGEHNIDVLEGNEQFINAAKIITHPNFNGNTLDNDIMLIKLSSPATLNSRVATVSLPRSCAAAGTECLISGWGNTKSSGSSYPSLLQCLKAPVLSDSSCKSSYPGQITGNMICVGFLEGGKDACQGDSGGPVVCNGQLQGIVSSGYGCAQKNKPGVYTKVCNYVNWIQQTIAAN
OUT: >90%
